System: Hs-578T
Assay: NCI tumour cell line growth inhibition, 48 h
Activity calls are given as the source filed them. Rule as the data show it: active = GI50 up to about 1.1 µM and inactive = higher.
Outcomes: active, inactive

INSERT INTO assay_data (molecule, answer_label) VALUES
  ('Cc1cccc(/C=N/NC(=S)Nc2ccccc2)n1', 'inactive'),
  ('CC(C)C1=CC23CCC4C(C)(C(=O)O)CCCC4(C)C2CC1C1C(=O)N(c2ccc(C(=O)O)cc2)C(=O)C13 (stereo unspecified)', 'inactive'),
  ('COc1cc(C=O)ccc1O', 'inactive'),
  ('N#CC(c1ccccc1)N(CCOCCOCCN(C(=O)c1ccccc1)C(C#N)c1ccccc1)C(=O)c1ccccc1 (stereo unspecified)', 'inactive'),
  ('COc1nn(Cc2ccccc2F)c2ccc([N+](=O)[O-])cc12', 'inactive'),
  ('O=C(NNC(=O)c1ccccc1O)c1ccccc1O', 'active');
